Reference for the values: PubChem BioAssay (NCI)

# Tested on: UACC-62 melanoma
# assayText: NCI tumour cell line growth inhibition, 48 h; in the data active means GI50 below about 0.43 µM; inactive means the rest
Reply using exactly one outcome from active, inactive

Example results:
O=S(=O)(NC1=NCCN1C(=S)SN1CCn2c1nsc2=S)c1cccc(OC(F)(F)F)c1; inactive
Cc1cc(NC(=O)c2cnc(N3CCN(CCOCCOCCOCCOCCC(=O)N[C@H](C(=O)N4C[C@H](O)C[C@H]4C(=O)N[C@@H](C)c4ccc(-c5scnc5C)cc4)C(C)(C)C)CC3)cn2)c2ncccc2c1; inactive
COc1cc(OC)cc(-c2n/c(=C\c3c(O)[nH]c4ccc(Cl)cc34)cc3c2=Nc2ccccc2-3)c1; inactive
COc1cccc2c1[C@H]1CO[C@H]3C4C[C@H](C(=O)O)C([C@@H](C2)N13)N4C (stereo not given in full); active

Note: attention shifts to another entry.
Ask | Would you mind telling me which call this test gave CCN(CC)CCCC(C)Nc1c(-c2ccccc2)cnc2cc(Cl)ccc12 (stereo not given) ?
Reply | inactive
